- System: MCF-7 cells (breast cancer)
- Protocol Notes: MCF-7 Viability Assays
- Assay type: cell-based, human
- Reported Conditions: MCF-7, 4000 cells/well, 72 hours
pIC50: −log10 of the molar value.
Property: pIC50

>>> experimental_result("[NH2][Pt]([NH2])([Cl])([Cl])([O]C(=O)CCC(=O)O)[O]C(=O)CCC(=O)O [DSCP, c,c,t-Pt(NH3)2Cl2(O2CCH2CH2CO2H)2]")
4.95
